Sourced from paper PMC4077163

Target: Grb2 SH2 domain (Homo sapiens)
Sequence (P62993 60-152 limits assumed): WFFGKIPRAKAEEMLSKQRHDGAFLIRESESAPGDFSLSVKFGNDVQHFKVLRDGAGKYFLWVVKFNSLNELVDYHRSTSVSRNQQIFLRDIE
Assay: Isothermal titration calorimetry
Type: binding
Conditions: ITC, 25 °C, HEPES (50 mM), NaCl (150 mM), pH 7.45 ± 0.05
Square brackets hold non-standard residues; d marks the D form. Peptide text beside a SMILES is read from it. * marks the point of attachment. pY = N[C@@H](Cc1ccc(OP(=O)(O)O)cc1)C(=O)O; Hydrocinnamoyl = O=C(CCc1ccccc1)*; Ac6c = NC1(C(=O)O)CCCCC1; Cbz = O=C(OCc1ccccc1)*
Decide using ΔH°: a value greater than or equal to -9 kcal/mol is MET, a smaller one is NOT MET.

Example results:
MOLECULE: CC(=O)N[C@@H](Cc1ccc(OP(=O)(O)O)cc1)C(=O)NC1(C(=O)N[C@@H](CC(N)=O)C(N)=O)CCCCC1 [Compound 7] (HELM PEPTIDE1{[ac].[O=C([C@H](Cc1ccc(OP(=O)(O)O)cc1)N[*:1])[*:2]].[O=C(C1(N[*:1])CCCCC1)[*:2]].N.[am]}$$$$V2.0)
TARGET_OR_TEST_SYSTEM: Grb2 SH2 domain (Homo sapiens)
GROUP_LABEL: MET

MOLECULE: NC(=O)C[C@H](NC(=O)C1(NC(=O)[C@H](Cc2ccc(OP(=O)(O)O)cc2)NC(=O)OCc2ccccc2)CCCCC1)C(N)=O [Compound 8] (Cbz-[pY]-[Ac6c]-Asn-NH2)
TARGET_OR_TEST_SYSTEM: Grb2 SH2 domain (Homo sapiens)
GROUP_LABEL: NOT MET

MOLECULE: NC(=O)C[C@H](NC(=O)C1(NC(=O)[C@H](Cc2ccc(OP(=O)(O)O)cc2)NC(=O)CCC2CCCCC2)CCCCC1)C(N)=O
TARGET_OR_TEST_SYSTEM: Grb2 SH2 domain (Homo sapiens)
GROUP_LABEL: NOT MET

MOLECULE: Cn1cc(CCC(=O)N[C@@H](Cc2ccc(OP(=O)(O)O)cc2)C(=O)NC2(C(=O)N[C@@H](CC(N)=O)C(N)=O)CCCCC2)c2ccccc21
TARGET_OR_TEST_SYSTEM: Grb2 SH2 domain (Homo sapiens)
GROUP_LABEL: NOT MET

Now turn to the next molecule.
Threshold query (ΔH° >= -9 kcal/mol) on NC(=O)C[C@H](NC(=O)C1(NC(=O)[C@H](Cc2ccc(OP(=O)(O)O)cc2)NC(=O)CCc2ccccc2)CCCCC1)C(N)=O [Compound 11] (Hydrocinnamoyl-[pY]-[Ac6c]-Asn-NH2)
NOT MET

###

Biological target: Grb2 SH2 domain (Homo sapiens)
Test: Isothermal titration calorimetry
Format: binding
Conditions: ITC, 25 °C, HEPES (50 mM), NaCl (150 mM), pH 7.45 ± 0.05
Square brackets hold non-standard residues; d marks the D form. Peptide text beside a SMILES is read from it. * marks the point of attachment. pY = N[C@@H](Cc1ccc(OP(=O)(O)O)cc1)C(=O)O; Hydrocinnamoyl = O=C(CCc1ccccc1)*; Ac6c = NC1(C(=O)O)CCCCC1; Cbz = O=C(OCc1ccccc1)*
Decide using −TΔS° alone. Strictly below -0.2 kcal/mol: Y. Equal to or above -0.2 kcal/mol: N.

Example results:
COMPOUND: NC(=O)C[C@H](NC(=O)C1(NC(=O)[C@H](Cc2ccc(OP(=O)(O)O)cc2)NC(=O)OCc2cccc(N)c2)CCCCC1)C(N)=O
GROUP_LABEL: Y
--
COMPOUND: CC(=O)N[C@@H](Cc1ccc(OP(=O)(O)O)cc1)C(=O)NC1(C(=O)N[C@@H](CC(N)=O)C(N)=O)CCCCC1 [Compound 7] (HELM PEPTIDE1{[ac].[O=C([C@H](Cc1ccc(OP(=O)(O)O)cc1)N[*:1])[*:2]].[O=C(C1(N[*:1])CCCCC1)[*:2]].N.[am]}$$$$V2.0)
GROUP_LABEL: Y
--
COMPOUND: NC(=O)C[C@H](NC(=O)C1(NC(=O)[C@H](Cc2ccc(OP(=O)(O)O)cc2)NC(=O)OCc2ccccc2)CCCCC1)C(N)=O [Compound 8] (Cbz-[pY]-[Ac6c]-Asn-NH2)
GROUP_LABEL: N

Now turn to the next compound.
Below -0.2 kcal/mol on −TΔS°? Entry NC(=O)C[C@H](NC(=O)C1(NC(=O)[C@H](Cc2ccc(OP(=O)(O)O)cc2)NC(=O)CCc2ccccc2)CCCCC1)C(N)=O [Compound 11] (Hydrocinnamoyl-[pY]-[Ac6c]-Asn-NH2)
Y
